- System: antibody in serum immobilized on goat anti-rabbit second antibody coated tubes
- protocol notes: Enzyme immunoassay (EIA) with HRP competitor or Hapten I conjugates, Aroclor 1248 analyte (Method D)
- Assay type: binding
- experimental context: improvement in I50 sensitivity compared to homologous (Hapten I) based assay

mol smiles	measured target	modifier sign	Relative Response (fold)
O=C(O)C=Cc1ccc(Cl)c(Cl)c1	antibody in serum immobilized on goat anti-rabbit second antibody coated tubes	=	9
O=C(O)CCCOc1ccc(Cl)cc1Cl	antibody in serum immobilized on goat anti-rabbit second antibody coated tubes	=	12
O=C(O)CCCC(=O)Nc1ccc(Cl)c(Cl)c1	antibody in serum immobilized on goat anti-rabbit second antibody coated tubes	<	1
O=C(O)CCc1ccc(Cl)c(Cl)c1	antibody in serum immobilized on goat anti-rabbit second antibody coated tubes	=	12

src = patent US6204005A
